Listed below: self-cleavage values for each entry.
B1: LINE1-full (parent)
chain: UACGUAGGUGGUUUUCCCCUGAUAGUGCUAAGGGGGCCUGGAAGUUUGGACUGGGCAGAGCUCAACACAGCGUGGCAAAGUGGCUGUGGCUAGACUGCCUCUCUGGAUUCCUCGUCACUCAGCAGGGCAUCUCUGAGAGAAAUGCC

Variants of: B1
test: self-cleavage, relative activity (ratio to wild type); higher = more cleavage; in vitro, sequencing; the parent is a self-cleaving ribozyme
experimentalReadout: self-cleavage

[[record]]
mutantlabel = "U14A U85C"
experimentalreadout = "self-cleavage"
assayvalue = 0.13

[[record]]
mutantlabel = "G48U U119C"
experimentalreadout = "self-cleavage"
assayvalue = 1.95

[[record]]
mutantlabel = "U29A G74A"
experimentalreadout = "self-cleavage"
assayvalue = 0.59

[[record]]
mutantlabel = "U119C C123A"
experimentalreadout = "self-cleavage"
assayvalue = 1.36

[[record]]
mutantlabel = "G135U U143C"
experimentalreadout = "self-cleavage"
assayvalue = 1.63

[[record]]
mutantlabel = "G7A U104C"
experimentalreadout = "self-cleavage"
assayvalue = 1.15

[[record]]
mutantlabel = "U20G U85A"
experimentalreadout = "self-cleavage"
assayvalue = 0.24

[[record]]
mutantlabel = "U108C U134A"
experimentalreadout = "self-cleavage"
assayvalue = 2.21

[[record]]
mutantlabel = "U73A U143A"
experimentalreadout = "self-cleavage"
assayvalue = 1.75

[[record]]
mutantlabel = "U13C G32A"
experimentalreadout = "self-cleavage"
assayvalue = 0.99

[[record]]
mutantlabel = "U85A U109A"
experimentalreadout = "self-cleavage"
assayvalue = 0.06

[[record]]
mutantlabel = "G41A A129U"
experimentalreadout = "self-cleavage"
assayvalue = 1.42

[[record]]
mutantlabel = "A43G U143A"
experimentalreadout = "self-cleavage"
assayvalue = 1.24

[[record]]
mutantlabel = "U15A U143C"
experimentalreadout = "self-cleavage"
assayvalue = 1.26

[[record]]
mutantlabel = "A6G U112C"
experimentalreadout = "self-cleavage"
assayvalue = 0.96

[[record]]
mutantlabel = "C71U C76U"
experimentalreadout = "self-cleavage"
assayvalue = 1.15

[[record]]
mutantlabel = "G21A U102A"
experimentalreadout = "self-cleavage"
assayvalue = 1.14

[[record]]
mutantlabel = "C66U A78G"
experimentalreadout = "self-cleavage"
assayvalue = 0.04

[[record]]
mutantlabel = "U29C C56U"
experimentalreadout = "self-cleavage"
assayvalue = 0.23

[[record]]
mutantlabel = "C38A U132C"
experimentalreadout = "self-cleavage"
assayvalue = 1.02

[[record]]
mutantlabel = "U15A G125U"
experimentalreadout = "self-cleavage"
assayvalue = 0.89

[[record]]
mutantlabel = "C71A C145U"
experimentalreadout = "self-cleavage"
assayvalue = 0.18

[[record]]
mutantlabel = "C66U U85G"
experimentalreadout = "self-cleavage"
assayvalue = 0.03

[[record]]
mutantlabel = "G8A G34U"
experimentalreadout = "self-cleavage"
assayvalue = 1.22

[[record]]
mutantlabel = "G44U U47C"
experimentalreadout = "self-cleavage"
assayvalue = 1.45

[[record]]
mutantlabel = "A30G A69C"
experimentalreadout = "self-cleavage"
assayvalue = 0.26

[[record]]
mutantlabel = "U5A A6G"
experimentalreadout = "self-cleavage"
assayvalue = 2.12

[[record]]
mutantlabel = "U14C U109A"
experimentalreadout = "self-cleavage"
assayvalue = 1.18

[[record]]
mutantlabel = "U47C A65U"
experimentalreadout = "self-cleavage"
assayvalue = 0.1

[[record]]
mutantlabel = "U109C U143C"
experimentalreadout = "self-cleavage"
assayvalue = 1.29

[[record]]
mutantlabel = "A43G A77U"
experimentalreadout = "self-cleavage"
assayvalue = 1.05

